Test system: HS 578T breast
TEST_SUMMARY: NCI-60 one-dose screen, 48 h
EXPERIMENTAL_CONTEXT: 10 µM unless noted
This is part of a sample that, as a whole, favours compounds with a hit. Of some 83,000 tested, about 20% had one in any assay. The source made the active and inactive calls. How the source made its calls: active means growth percent below 10; inactive means the rest.
Please answer using one outcome listed in 1 for active, -1 for inactive

Example entries begin here.
Cc1nnc([S-])s1.[Au+].c1ccc([PH+](c2ccccc2)c2ccccc2)cc1    -1
Nc1cccc(CC(=O)Nc2ccc(S(=O)(=O)F)cc2)c1    -1
CC(=O)OC1CCC2(C)C(=CCC3C4CC(CN5CC5)C(=O)C4(C)CCC32)C1 (stereo not given)    -1

Q: Hi, do you know how C/C(=C\C(=O)O[C@H]1[C@@H]2[C@H](C)CC[C@H]2[C@]2(C)O[C@@]1(C1CCCCC1)C[C@H]2OC(=O)CO)c1ccccc1 came out in this test?
A: 1

Q: Hi, do you know how Cc1cccc(N=C2c3cc([N+](=O)[O-])ccc3-c3c2cc([N+](=O)[O-])cc3[N+](=O)[O-])c1 came out in this test?
A: -1

Q: Hi, do you know how O=C1NC(=O)C(O)(C2(O)C(=O)NC(=O)NC2=O)C(=O)N1 came out in this test?
A: -1

Q: Hi, do you know how NC(Cc1ccc(O)cc1)C(=O)N/N=C/c1ccc(N(CCCl)CCCl)cc1 (stereo not given) came out in this test?
A: -1

Q: Hi, do you know how Nc1c(Br)cc([N+](=O)[O-])cc1[N+](=O)[O-] came out in this test?
A: -1

Q: Hi, do you know how O=S(=O)(Cl)c1ccccc1 (tested in a mixture with another compound) came out in this test?
A: -1

Q: Hi, do you know how Cc1cc(NC(=O)CCc2ccc(N3C(N)=NC(N)=NC3(C)C)cc2)ccc1S(=O)(=O)F came out in this test?
A: -1

Q: Hi, do you know how Oc1c(Br)cc(Br)cc1Br.[Cu+2] came out in this test?
A: -1

Q: Hi, do you know how CCC(C)[C@H]1O[C@]2(C=C[C@@H]1C)C[C@@H]1C[C@@H](C/C=C(\C)[C@@H](OC3C[C@H](OC)C(O[C@H]4C[C@H](OC)[C@@H](O)[C@H](C)O4)[C@H](C)O3)[C@@H](C)/C=C/C=C3\CO[C@@H]4[C@H](O)C(C)=C[C@@H](C(=O)O1)[C@]34O)O2 (stereo not given in full) came out in this test?
A: 1

Q: Hi, do you know how O=C(CCc1ccco1)NC1CCN(CC2(c3ccc(Cl)cc3)CCC2)CC1 came out in this test?
A: -1

Q: Hi, do you know how COc1cc(C2CC(=O)Nc3nc(N)[se]c32)c(OC)c2c1OCO2 (stereo not given) came out in this test?
A: -1

Q: Hi, do you know how O=C1c2ccccc2C(=O)N1[N+](=O)[O-] came out in this test?
A: -1

Q: Hi, do you know how CC12CCC3C(CC=C4CC(O)CCC43C)C1C/C(=C\N1CCOCC1)C2=O (stereo not given) came out in this test?
A: -1
